For each of the compounds below, state its drug sensitivity score.
Tested on: Vero E6
Protocol Description: drug sensitivity score (DSS) for viability; higher = more toxic; extreme values may be limits of the assay
Measurement Context: 72 h
Give bare numbers.

Dear colleague, could you please provide drug sensitivity score for the compounds listed below?
1. N=C(N)NS(=O)(=O)c1ccc(N)cc1
2. CC(C)n1nc(C#Cc2ccccc2)c2c(N)ncnc21
3. CC(C)[N+](C)(CCC(C(N)=O)(c1ccccc1)c1ccccc1)C(C)C [isopropamide-iodide]
4. Cc1ccc(Cl)c(OC[C@H](O)CNC(C)C)c1

Output:
0
0.7
0
0

###

Tested on: HepG2
Protocol Description: drug sensitivity score (DSS) for viability; higher = more toxic; extreme values may be limits of the assay
Measurement Context: 72 h
For each of the molecules below, state its drug sensitivity score.
Numbers only.

Dear colleague, could you please provide drug sensitivity score for the molecules listed below?
1. COC(=O)Nc1ccc(-c2nc(N3CCOCC3)c3cnn(C4CCN(Cc5cccnc5)CC4)c3n2)cc1
2. CN1C(C)(C)CCCC1(C)C
3. CC(=O)N1CCC(C(=O)N(CCCN2CCC(Cc3ccc(C(N)=O)cc3)CC2)c2ccc(C)c(Cl)c2)CC1
4. CN(C)c1ccc(-c2nc3c(N4CCN(CC(=O)Nc5nccs5)CC4)c(Cl)cnc3[nH]2)cc1

Output:
10.1
0.1
0
0

Dear colleague, could you please provide drug sensitivity score for the molecules listed below?
1. O=C(Nc1cccc(Br)c1)c1cccc(S(=O)(=O)N2CCCCCC2)c1
2. COC(=O)c1cnn(-c2ccc(F)cc2F)c1/C=N/NC(=S)NC(C)(C)C
3. O=C(Nc1cnc(Cl)nc1)c1ccc(F)c(F)c1
4. CCCCc1nc(Cl)c(C(=O)O)n1Cc1ccc(-c2ccccc2-c2nn[nH]n2)cc1

Output:
[0.9, 0, 0, 0]

Dear colleague, could you please provide drug sensitivity score for the molecules listed below?
1. CN(C)CCCN1c2ccccc2Sc2ccc(Cl)cc21
2. C[C@@H](O)[C@H](N)C(=O)N1CCC[C@H]1C(=O)N1CCC[C@H]1C(=O)N[C@H](C(N)=O)[C@@H](C)O
3. CC[C@H](CO)Nc1nc(NCc2ccccc2)c2ncn(C(C)C)c2n1
4. Cc1cc(-c2ccccc2)nnc1NCCN1CCOCC1

Output:
1. 3.9
2. 0
3. 0
4. 0

Dear colleague, could you please provide drug sensitivity score for the molecules listed below?
1. Cc1ccc(Cl)c(OC[C@H](O)CNC(C)C)c1
2. O=C(O)C1(C(=O)O)CCC1.[NH2-].[NH2-].[Pt+2]
3. CCN(CC)CCO[C@H]1CC[C@@]2(C)C(=CC[C@@H]3[C@@H]2CC[C@]2(C)C(=O)CC[C@@H]32)C1
4. NC(=O)c1noc([C@H](CCCC2CCCCC2)CC(=O)NO)n1
5. CC(C)N(CC[C@H](c1ccccc1)c1cc(CO)ccc1O)C(C)C [5-hydroxymethyl-tolterodine]
6. CC(=O)N1CCN(C)CC1
7. O=C(OCCOCCO)c1ccccc1Nc1cccc(C(F)(F)F)c1 [etofenamate]

Output:
[0, 0, 5.8, 2.2, 0, 0, 0]
